Assay: Particle size and polydispersity index of lipid nanoparticles by dynamic light scattering
Assay type: physicochemical
Conditions: MO nanoparticles with amino lipid at RMO 0.2, Pluronic F-127, 25° C., mean ± SD n=3
Each entry below carries its recorded PDI of the formulations.
Quantity: PDI of the formulations

compound="CCCCCCCC/C=C\\CCCCCCCC(=O)NCc1ccccn1 [Lipid-11]" result="0.23 ± 0.02"
compound="CCCCCCCC/C=C\\CCCCCCCC(=O)NCc1ccncc1 [Lipid-10, N-(pyridine-4-ylmethyl)oleamide]" result="0.19 ± 0.03"
compound="CCCCCCCC/C=C\\CCCCCCCC(=O)NCCN1CCCCC1 [Lipid-13, N-(2-(piperidin-1-yl)ethyl)oleamide]" result="0.22 ± 0.05"
compound="CCCCCCCC/C=C\\CCCCCCCC(=O)NCCN1CCOCC1 [Lipid-12]" result="0.30 ± 0.03"
